System: Aspergillus ochraceus
measurement protocol: Antimicrobial activity against Aspergillus ochraceus by broth microdilution method
Assay type: functional
*1 amine or outer side, *2 acyl side, *3 side chain or, on linkers, in order; H or OH if unused. Where a SMILES comes first, the peptide text is derived from it. Bridges are numbered along the chain shown (N, C = ends). [ ]: non-standard residue; d: D form. The star is where a group is joined. hTyr(3S-OH,4S-OH,3'-OSO3H) = N[C@H](C(=O)O)[C@H](O)[C@@H](O)c1ccc(O)c(OS(=O)(=O)O)c1; pTerphenylCO(4''-OnC5H11) = CCCCCOc1ccc(-c2ccc(-c3ccc(C(=O)*)cc3)cc2)cc1; Orn(4R-OH,5R-OH) = O=C([C@H](C[C@@H](O)[C@@H](O)N[*:3])N[*:1])[*:2]; hTyr(3S-OH,4S-OH) = N[C@H](C(=O)O)[C@H](O)[C@@H](O)c1ccc(O)cc1; Pro(3S-OH,4S-Me) = C[C@H]1CN[C@H](C(=O)O)[C@H]1O; X1 = CCCCCOc1ccc(-c2cc(-c3ccc(C(=O)*)cc3)no2)cc1; Gln(3R-OH) = NC(=O)C[C@@H](O)[C@H](N)C(=O)O; Hyp = O=C(O)[C@@H]1C[C@@H](O)CN1
attribute measured: MIC50 (µg/mL)
The response must be a number in µg/mL with no trailing unit.

Entry CCCCCOc1ccc(-c2cc(-c3ccc(C(=O)N[C@H]4C[C@@H](O)[C@@H](O)NC(=O)[C@@H]5[C@@H](O)[C@@H](C)CN5C(=O)[C@H]([C@H](O)CC(N)=O)NC(=O)[C@H]([C@H](O)[C@@H](O)c5ccc(O)c(OS(=O)(=O)O)c5)NC(=O)[C@@H]5C[C@@H](O)CN5C(=O)[C@H]([C@@H](C)O)NC4=O)cc3)no2)cc1 [MICAFUNGIN] (X1-[Orn(4R-OH,5R-OH)]T[Hyp][hTyr(3S-OH,4S-OH,3'-OSO3H)][Gln(3R-OH)][Pro(3S-OH,4S-Me)]; lactam 1-C) has what MIC50?
0.06

Here is the next compound: CCCCCOc1ccc(-c2ccc(-c3ccc(C(=O)N[C@H]4C[C@@H](O)[C@@H](O)NC(=O)[C@@H]5[C@@H](O)[C@@H](C)CN5C(=O)[C@H]([C@@H](C)O)NC(=O)[C@H]([C@H](O)[C@@H](O)c5ccc(O)cc5)NC(=O)[C@@H]5C[C@@H](O)CN5C(=O)[C@H]([C@@H](C)O)NC4=O)cc3)cc2)cc1 [ANIDULAFUNGIN] ({pTerphenylCO(4''-OnC5H11)}-[Orn(4R-OH,5R-OH)]T[Hyp][hTyr(3S-OH,4S-OH)]T[Pro(3S-OH,4S-Me)]; lactam 1-C)
0.06

Let us now turn to `C[C@@H](c1ncncc1F)[C@](O)(Cn1cncn1)c1ccc(F)cc1F`
0.25

###

Test system: Aspergillus versicolor
measurement protocol: Antimicrobial activity against Aspergillus versicolor by broth microdilution method
Assay type: functional
attribute measured: MIC50 (µg/mL)
Your answer should be a plain number; it is taken to be in µg/mL.

What measured MIC50 is associated with `CC[C@@H]([C@H](C)O)n1ncn(-c2ccc(N3CCN(c4ccc(OC[C@@H]5CO[C@@](Cn6cncn6)(c6ccc(F)cc6F)C5)cc4)CC3)cc2)c1=O` on Aspergillus versicolor?
0.25

Note, next up: `CC[C@H](C)C[C@H](C)CCCCCCCCC(=O)N[C@H]1C[C@@H](O)[C@@H](NCCN)NC(=O)[C@@H]2[C@@H](O)CCN2C(=O)[C@H]([C@H](O)CCN)NC(=O)[C@H]([C@H](O)[C@@H](O)c2ccc(O)cc2)NC(=O)[C@@H]2C[C@@H](O)CN2C(=O)[C@H]([C@@H](C)O)NC1=O`
0.25

Also need `C[C@@H](c1ncncc1F)[C@](O)(Cn1cncn1)c1ccc(F)cc1F` , thanks.
1

###

Tested on: Trichosporon ovoides
measurement protocol: Antimicrobial activity against Trichosporon ovoides by broth microdilution method
Assay type: functional
*1 amine or outer side, *2 acyl side, *3 side chain or, on linkers, in order; H or OH if unused. Where a SMILES comes first, the peptide text is derived from it. Bridges are numbered along the chain shown (N, C = ends). [ ]: non-standard residue; d: D form. The star is where a group is joined. hTyr(3S-OH,4S-OH,3'-OSO3H) = N[C@H](C(=O)O)[C@H](O)[C@@H](O)c1ccc(O)c(OS(=O)(=O)O)c1; Orn(4R-OH,5R-OH) = O=C([C@H](C[C@@H](O)[C@@H](O)N[*:3])N[*:1])[*:2]; Pro(3S-OH,4S-Me) = C[C@H]1CN[C@H](C(=O)O)[C@H]1O; X1 = CCCCCOc1ccc(-c2cc(-c3ccc(C(=O)*)cc3)no2)cc1; Gln(3R-OH) = NC(=O)C[C@@H](O)[C@H](N)C(=O)O; Hyp = O=C(O)[C@@H]1C[C@@H](O)CN1
attribute measured: MIC50

Endpoint output: MIC50 of CCCCCOc1ccc(-c2cc(-c3ccc(C(=O)N[C@H]4C[C@@H](O)[C@@H](O)NC(=O)[C@@H]5[C@@H](O)[C@@H](C)CN5C(=O)[C@H]([C@H](O)CC(N)=O)NC(=O)[C@H]([C@H](O)[C@@H](O)c5ccc(O)c(OS(=O)(=O)O)c5)NC(=O)[C@@H]5C[C@@H](O)CN5C(=O)[C@H]([C@@H](C)O)NC4=O)cc3)no2)cc1 [MICAFUNGIN] (X1-[Orn(4R-OH,5R-OH)]T[Hyp][hTyr(3S-OH,4S-OH,3'-OSO3H)][Gln(3R-OH)][Pro(3S-OH,4S-Me)]; lactam 1-C) . Value?
> 16 µg/mL

###

Task for the reader: assign each of the following compounds its reported MIC90.
System: Cryptococcus deneoformans
measurement protocol: Antimicrobial activity against Cryptococcus neoformans var. neoformans by broth microdilution method
Assay type: functional
*1 amine or outer side, *2 acyl side, *3 side chain or, on linkers, in order; H or OH if unused. Where a SMILES comes first, the peptide text is derived from it. Bridges are numbered along the chain shown (N, C = ends). [ ]: non-standard residue; d: D form. The star is where a group is joined. hTyr(3S-OH,4S-OH,3'-OSO3H) = N[C@H](C(=O)O)[C@H](O)[C@@H](O)c1ccc(O)c(OS(=O)(=O)O)c1; pTerphenylCO(4''-OnC5H11) = CCCCCOc1ccc(-c2ccc(-c3ccc(C(=O)*)cc3)cc2)cc1; Orn(4R-OH,5R-OH) = O=C([C@H](C[C@@H](O)[C@@H](O)N[*:3])N[*:1])[*:2]; hTyr(3S-OH,4S-OH) = N[C@H](C(=O)O)[C@H](O)[C@@H](O)c1ccc(O)cc1; Pro(3S-OH,4S-Me) = C[C@H]1CN[C@H](C(=O)O)[C@H]1O; X1 = CCCCCOc1ccc(-c2cc(-c3ccc(C(=O)*)cc3)no2)cc1; Gln(3R-OH) = NC(=O)C[C@@H](O)[C@H](N)C(=O)O; Hyp = O=C(O)[C@@H]1C[C@@H](O)CN1

MIC90 lookup needed for CCCCCOc1ccc(-c2ccc(-c3ccc(C(=O)N[C@H]4C[C@@H](O)[C@@H](O)NC(=O)[C@@H]5[C@@H](O)[C@@H](C)CN5C(=O)[C@H]([C@@H](C)O)NC(=O)[C@H]([C@H](O)[C@@H](O)c5ccc(O)cc5)NC(=O)[C@@H]5C[C@@H](O)CN5C(=O)[C@H]([C@@H](C)O)NC4=O)cc3)cc2)cc1 [ANIDULAFUNGIN] ({pTerphenylCO(4''-OnC5H11)}-[Orn(4R-OH,5R-OH)]T[Hyp][hTyr(3S-OH,4S-OH)]T[Pro(3S-OH,4S-Me)]; lactam 1-C) , thanks.
> 16 µg/mL

Next up: `OC(Cn1cncn1)(Cn1cncn1)c1ccc(F)cc1F`
> 64 µg/mL

CCCCCOc1ccc(-c2cc(-c3ccc(C(=O)N[C@H]4C[C@@H](O)[C@@H](O)NC(=O)[C@@H]5[C@@H](O)[C@@H](C)CN5C(=O)[C@H]([C@H](O)CC(N)=O)NC(=O)[C@H]([C@H](O)[C@@H](O)c5ccc(O)c(OS(=O)(=O)O)c5)NC(=O)[C@@H]5C[C@@H](O)CN5C(=O)[C@H]([C@@H](C)O)NC4=O)cc3)no2)cc1 [MICAFUNGIN] (X1-[Orn(4R-OH,5R-OH)]T[Hyp][hTyr(3S-OH,4S-OH,3'-OSO3H)][Gln(3R-OH)][Pro(3S-OH,4S-Me)]; lactam 1-C) , same question.
> 16 µg/mL

Similarly, CCC(C)n1ncn(-c2ccc(N3CCN(c4ccc(OCC5COC(Cn6cncn6)(c6ccc(Cl)cc6Cl)O5)cc4)CC3)cc2)c1=O (centres undefined) ?
0.5 µg/mL

Next record, please: `Nc1nc(=O)[nH]cc1F`
32 µg/mL

Same question, `CC[C@@H]([C@H](C)O)n1ncn(-c2ccc(N3CCN(c4ccc(OC[C@@H]5CO[C@@](Cn6cncn6)(c6ccc(F)cc6F)C5)cc4)CC3)cc2)c1=O` this time
0.5 µg/mL

Would you kindly repeat that for `C[C@@H](c1ncncc1F)[C@](O)(Cn1cncn1)c1ccc(F)cc1F` ?
0.5 µg/mL

# repeat for `C[C@@H]1[C@H](O)[C@@H](C)/C=C/C=C/C=C/C=C/C=C/C=C/C=C/[C@H](O[C@@H]2O[C@H](C)[C@@H](O)[C@H](N)[C@@H]2O)C[C@@H]2O[C@](O)(C[C@@H](O)C[C@@H](O)[C@H](O)CC[C@@H](O)C[C@@H](O)CC(=O)O[C@H]1C)C[C@H](O)[C@H]2C(=O)O`
2 µg/mL

Next compound: `CC[C@H](C)C[C@H](C)CCCCCCCCC(=O)N[C@H]1C[C@@H](O)[C@@H](NCCN)NC(=O)[C@@H]2[C@@H](O)CCN2C(=O)[C@H]([C@H](O)CCN)NC(=O)[C@H]([C@H](O)[C@@H](O)c2ccc(O)cc2)NC(=O)[C@@H]2C[C@@H](O)CN2C(=O)[C@H]([C@@H](C)O)NC1=O`
> 16 µg/mL

Numbers sourced from ChEMBL document CHEMBL1649165.
